- Test system: RARg:RXRa (NR concentration 270 nM, RXRa partner concentration 90 nM)
- testDetails: PBM binding z-score (relative to random genomic background probes); higher = stronger binding; sequences stand for … in GC…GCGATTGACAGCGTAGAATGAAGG
# if value of PBM binding z-score reaches 3, tag yes (1); if it stays below, tag no (0)

Record excerpt, results attached:
{"columns": ["residues", "cat"],
 "data": [
  ["CCGAGTAGGTTACGAGGGGGCAATCAGTGCGAAT", "yes (1)"],
  ["CGTCCAAGGTAAGAGAGGTCAGTGAATGCCGAGT", "no (0)"],
  ["GCTGCTAGGTCAGGATGGTCAGCTAACGGGTACG", "no (0)"],
  ["CGAACTAGGTCAGAGGACAGTGAAAGGCGACGTA", "no (0)"],
  ["GCTGCTAGGTTAACTGATGGTCAGCTAAAGCTCG", "no (0)"],
  ["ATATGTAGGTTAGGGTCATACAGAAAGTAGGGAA", "yes (1)"]
]}

(Q) Threshold query (PBM binding z-score >= 3) on CGTCCAAGGTCAATGTTAGGTCAGTGAAAGCATT
(A) yes (1)

(Q) Assess whether reported PBM binding z-score for AAATGTAGGTTAGGGTCATTCAGAAAGTAGGGAA sits at 3 or higher.
(A) yes (1)

(Q) Can CGTCCAAGGTCAACAGGTCAGTGAAAGCGACGTG be said to have PBM binding z-score at or above 3?
(A) yes (1)

(Q) Record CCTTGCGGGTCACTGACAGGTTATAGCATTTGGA ; criterion: PBM binding z-score no lower than 3. Met?
(A) yes (1)

(Q) Could you please find out whether ATCGAAAGGTCGACGAGTTGAGTATACACCGTTT has PBM binding z-score that meets 3 or exceeds it?
(A) yes (1)

(Q) Is PBM binding z-score at least 3? Consider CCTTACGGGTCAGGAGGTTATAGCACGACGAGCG
(A) yes (1)

(Q) Determine whether measured PBM binding z-score meets or exceeds 3 for CGAACTAGGTAACCAGGACAGTGAAGAGGTTGGA
(A) no (0)

(Q) Determine whether measured PBM binding z-score meets or exceeds 3 for CGAACTAGGTCACCAGGAAAGTGAAGAGGTTGGA
(A) yes (1)

(Q) Check if PBM binding z-score >= 3 (inclusive). Item: ATATGTAGGGTAGGGTCATTCAGAAAGTAGGGAA
(A) yes (1)

(Q) Has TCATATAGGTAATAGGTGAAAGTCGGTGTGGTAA a recorded PBM binding z-score greater than or equal to 3?
(A) no (0)

(Q) Textbook exercise: given the entry TCTTGTAGATCAAAGGTCAAGAAAGCCGAAGCCT , state whether its PBM binding z-score is greater than or equal to 3.
(A) yes (1)

(Q) Evaluate CGAACTAGGTCACCAGGCCAGTGAAGAGGTTGGA : PBM binding z-score at minimum 3?
(A) yes (1)

(Q) Given GCTTACGGGTCAAAGGTTAAAGCATGAATAGAAT , state whether its PBM binding z-score is at least 3.
(A) yes (1)

(Q) Hi team, for CAAAGTAGGTCAAGGTCAAAGTCGGTTTGTGCCA , is the recorded PBM binding z-score at or above 3?
(A) yes (1)

(Q) Reported PBM binding z-score reaches at least 3 for CCGTACGGGTCAAGGTTATAGCACGGGTGGTACG ?
(A) yes (1)

(Q) Evaluate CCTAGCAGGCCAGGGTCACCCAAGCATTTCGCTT : PBM binding z-score at minimum 3?
(A) yes (1)

(Q) Identify whether the reported PBM binding z-score of the following sequence is 3 or greater: TCGAGTAGGATACGGGGGCATTCAGGGATGAAGA
(A) no (0)

(Q) Hi, just wondering whether CCTAGTGGGTCAGGAGGTCACACACCGGATATGA shows PBM binding z-score of 3 or higher.
(A) yes (1)

(Q) Identify whether the reported PBM binding z-score of the following sequence is 3 or greater: CCTTACGGGTCAAGGTTATATCACGGGTGGTACG
(A) yes (1)

(Q) Hi, just wondering whether GATACACGGTCAAGGCCAGAGTACGCGTATTGAT shows PBM binding z-score of 3 or higher.
(A) no (0)
